These data points were gathered from paper PMC3109985.

- Tested on: HIV-1 NL4-3
- assayComment: Anti-HIV assay: HIV-1 NL4-3 replication in MT4 cells, p24 ELISA
- Type: cell-based
- experimentalParameters: read-out: anti-HIV (NL4-3) EC90; concentration that inhibited HIV-1 replication by 90%; MT4 cells, 4-day post infection, p24 ELISA
The reader will find reported EC90 values listed item by item below.
State just the number; it will be interpreted in nM.

Some compounds with known EC90 results, for comparison:
compound: C=C(C)[C@]12C[C@@H](COC(=O)c3ccccc3)[C@@]34OC5(CCCCCCC[C@@H](C)[C@H]6[C@H](C)C(=O)[C@@](O)([C@H](O)[C@@]7(CO)O[C@H]7[C@H]3[C@H]1O5)[C@@H]64)O2 [Compound 3, wikstroelide F]
EC90 / nM: 1.7

compound: C=C(C)[C@]12C[C@@H](C)[C@@]34O[C@](/C=C/C=C/CCCCCCCCC)(O[C@@H]1[C@@H]3[C@@H]1O[C@]1(CO)[C@@H](O)[C@]1(O)C(=O)C(C)=C[C@H]14)O2
EC90 / nM: 5.8

compound: C=C(C)[C@]12C[C@@H](COC(=O)c3ccccc3)[C@]34OC5(CCCCCCC[C@H](C)[C@@H]6[C@@H]3[C@]3(O[C@]6(C)OC3=O)[C@H](O)[C@@]3(CO)O[C@H]3[C@H]4[C@H]1O5)O2 [Compound 6, Stelleralide C]
EC90 / nM: 91

Bench note, HIV-1 NL4-3: C=C(C)[C@]12C[C@@H](COC(C)=O)[C@@]34O[C@]5(O[C@@H]1[C@@H]3[C@@H]1O[C@]1(CO)[C@@H](O)[C@@]1(O)[C@H]4[C@H]([C@H](C)[C@@H]1OC(=O)c1ccccc1)[C@H](C)CCCCCC[C@H]5O)O2 [Compound 4, Stelleralide A] , EC90 reads 0.4
